Test system: HEK-293T
Test: Multiplex assay against HEK293T
Type: toxicity, cell-based
Settings: human, 24 h, 1 µM, compound concentration 1 uM, replicate 1

compound | Population Apoptotic (%)
CNC[C@H](O)c1ccc(O)c(O)c1 [EPINEPHRINE] | 19
CCCn1c(=O)c2[nH]c(C3CCCC3)nc2n(CCC)c1=O | 26
COc1ccc2c(c1)C(C(=O)N(Cc1ccc(N(C)C)cc1)c1ccc(C(C)C)cc1)CCC2.Cl (centres undefined) | 31
CSc1ccccc1N1CCN(CCCCCC(=O)NC2CCCc3ccccc32)CC1.Cl (centres undefined) | 36
COc1cc(NC(=O)CCN2CCC(OC(=O)Nc3ccccc3-c3ccccc3)CC2)c(Cl)cc1CNC[C@H](O)c1ccc(O)c2[nH]c(=O)ccc12 | 44
CC(=O)NCCc1c(Cc2ccccc2)[nH]c2ccccc12 | 20
Oc1c(CN2CCN(c3ccccn3)CC2)cc(Cl)c2cccnc12 | 34
CN(C)c1ccnc2sc3c(=O)n(N4CCCCCC4)cnc3c12 | 30
O=C1COc2nccc(-c3ccccc3F)c2CN1Cc1cc(C(F)(F)F)cc(C(F)(F)F)c1 | 21

* * *

Property: Population Healthy Nuclei (%); scope: individual molecules
System: HEK-293T
Experiment: Multiplex assay against HEK293T
Format: toxicity, cell-based
Details: human, 48 h, 1 µM, compound concentration 1 uM, replicate 2
observable: Population Healthy Nuclei (%)

molecule | result
CSc1ccccc1N1CCN(CCCCCC(=O)NC2CCCc3ccccc32)CC1.Cl (centres undefined) | 76%
CN(C)c1ccnc2sc3c(=O)n(N4CCCCCC4)cnc3c12 | 82%
CC[C@H]1OC(=O)[C@H](C)[C@@H](O[C@H]2C[C@@](C)(OC)[C@@H](O)[C@H](C)O2)[C@H](C)[C@@H](O[C@@H]2O[C@H](C)C[C@H](N(C)C)[C@H]2O)[C@@]2(C)CC(C)=C(O2)[C@H](C)[C@@H](O)[C@]1(C)O | 78%
O=C1COc2nccc(-c3ccccc3F)c2CN1Cc1cc(C(F)(F)F)cc(C(F)(F)F)c1 | 81%
O=C(NCCO)c1cccc(-c2cc(Nc3ccc(OC(F)(F)F)cc3)ncn2)c1 | 79%
N[C@@]1(C(=O)O)CO[C@H]2[C@H](C(=O)O)[C@H]21 | 81%
Cc1ccccc1C(=O)Nc1ccc(C(=O)N2CCCC(N(C)C)c3ccccc32)cc1.Cl (centres undefined) | 82%
CNC[C@H](O)c1ccc(O)c(O)c1 [EPINEPHRINE] | 78%
O=C(NCC(=O)N1CC[C@H](N[C@H]2CC[C@@](O)(c3ccc(-c4ncccn4)cn3)CC2)C1)c1cccc(C(F)(F)F)c1 | 77%
O=S(=O)(c1ccccc1)c1cnc2c(N3CCNCC3)cccc2c1 [INTEPIRDINE] | 79%
CC(=O)NCCc1c(Cc2ccccc2)[nH]c2ccccc12 | 82%
COc1ccc2c(c1)C(C(=O)N(Cc1ccc(N(C)C)cc1)c1ccc(C(C)C)cc1)CCC2.Cl (centres undefined) | 81%
O=C(O)c1cc2ccccc2c(Cc2c(O)c(C(=O)O)cc3ccccc23)c1O | 84%
COc1cc(C(=O)N(CCCc2ccccc2)Cc2ccc(CC(=O)O)cc2)cc(OC)c1C | 83%

* * *

System: U2OS
Test: Multiplex assay against U2OS
Assay type: toxicity, cell-based
Conditions: human, 12 h, 1 µM, compound concentration 1 uM, replicate 1
observable: Population Membrane Permeable-Phenotype (%)

molecule | system_tested | number
CCCC(CCC)C(=O)O | U2OS | 9
CC[C@H]1OC(=O)[C@H](C)[C@@H](O[C@H]2C[C@@](C)(OC)[C@@H](O)[C@H](C)O2)[C@H](C)[C@@H](O[C@@H]2O[C@H](C)C[C@H](N(C)C)[C@H]2O)[C@@]2(C)CC(C)=C(O2)[C@H](C)[C@@H](O)[C@]1(C)O | U2OS | 33
COc1ccc2c(c1)C(C(=O)N(Cc1ccc(N(C)C)cc1)c1ccc(C(C)C)cc1)CCC2.Cl (stereo not given) | U2OS | 8
CC(=O)NCCc1c(Cc2ccccc2)[nH]c2ccccc12 | U2OS | 3
O=C(O)c1cc2ccccc2c(Cc2c(O)c(C(=O)O)cc3ccccc23)c1O | U2OS | 2

* * *

System: U2OS
Test: Multiplex assay against U2OS
Format: toxicity, cell-based
Settings: human, 24 h, 1 µM, compound concentration 1 uM, replicate 2

compound | Population Apoptotic (%)
Oc1c(CN2CCN(c3ccccn3)CC2)cc(Cl)c2cccnc12 | 100
O=S(=O)(c1ccccc1)c1cnc2c(N3CCNCC3)cccc2c1 [INTEPIRDINE] | 69
C[C@H]1[C@H]2CC[C@H]3[C@@H]4CC=C5C[C@@H](N(C)C)CC[C@]5(C)[C@H]4CC[C@]23CN1C [CONESSINE] | 100
O=C1COc2nccc(-c3ccccc3F)c2CN1Cc1cc(C(F)(F)F)cc(C(F)(F)F)c1 | 83
N#Cc1c(N)nc(SCc2csc(-c3ccc(Cl)cc3)n2)c(C#N)c1-c1ccc(OCCO)cc1 [CAPADENOSON] | 61
CSCC[C@H](NC=O)C(=O)N[C@@H](CC(C)C)C(=O)N[C@@H](Cc1ccccc1)C(=O)O | 90
CCOc1c2c(c(OCC)c3ncccc13)CN(c1ccc(CS(=O)(=O)NC(=O)Cc3ccccc3OC)cc1C)C2=O | 100
CCCN1CCC[C@@H]2Cc3n[nH]cc3C[C@H]21.Cl [QUINPIROLE HYDROCHLORIDE] | 77

* * *

System: U2OS
Test: Multiplex assay against U2OS
Format: toxicity, cell-based
Conditions: human, 24 h, 1 µM, compound concentration 1 uM, replicate 2
Entries annotated with measured Population Hoechst High Intensity Objects (%)
observable: Population Hoechst High Intensity Objects (%)

compound | number
C[C@H](NC(=O)c1c(C(F)F)nn(C)c1Oc1cccc(C(F)(F)F)c1)c1ccc(C(=O)O)cc1 | 1
CC[C@H]1OC(=O)[C@H](C)[C@@H](O[C@H]2C[C@@](C)(OC)[C@@H](O)[C@H](C)O2)[C@H](C)[C@@H](O[C@@H]2O[C@H](C)C[C@H](N(C)C)[C@H]2O)[C@@]2(C)CC(C)=C(O2)[C@H](C)[C@@H](O)[C@]1(C)O | 5
COc1cc(C(=O)N(CCCc2ccccc2)Cc2ccc(CC(=O)O)cc2)cc(OC)c1C | 4
Cc1nc2ccc(Oc3ccc(F)cc3)cc2c(=O)n1C[C@H]1CCCN(C(C)C)C1.Cl | 2
Cc1ccccc1C(=O)Nc1ccc(C(=O)N2CCCC(N(C)C)c3ccccc32)cc1.Cl (configuration not stated) | 1
Cl.Clc1ccc2nsnc2c1NC1=NCCN1 [TIZANIDINE HYDROCHLORIDE] | 4
COc1c(C)cc(NC(=O)c2nn(Cc3ccc(F)cc3)c3c2CN(C(=O)c2ccc[nH]2)C[C@]3(C)C(N)=O)cc1C | 0

* * *

System: U2OS
Assay: Multiplex assay against U2OS
Assay type: toxicity, cell-based
Details: human, 12 h, 10 µM, compound concentration 10 uM, replicate 1
observable: Population Normal (%)

compound | system_tested | result
Cc1ccc(C(C)(O)c2nc3ccccc3s2)c(C)c1 (stereo not given) | U2OS | 97%
CNC[C@H](O)c1ccc(O)c(O)c1 [EPINEPHRINE] | U2OS | 93%
COc1cc(C(=O)N(CCCc2ccccc2)Cc2ccc(CC(=O)O)cc2)cc(OC)c1C | U2OS | 99%
O=C(O)Cc1ccccc1Nc1c(Cl)cccc1Cl [DICLOFENAC] | U2OS | 97%
O=S(=O)(c1ccccc1)c1cnc2c(N3CCNCC3)cccc2c1 [INTEPIRDINE] | U2OS | 96%
C[C@H](NC(=O)c1c(C(F)F)nn(C)c1Oc1cccc(C(F)(F)F)c1)c1ccc(C(=O)O)cc1 [PALUPIPRANT] | U2OS | 96%
CN1CCN2c3ncccc3Cc3ccccc3C2C1 (stereo not given) [MIRTAZAPINE] | U2OS | 96%
Cc1nc2ccc(Oc3ccc(F)cc3)cc2c(=O)n1C[C@H]1CCCN(C(C)C)C1.Cl | U2OS | 96%
Cc1ccc(/C(=C\CN2CCCC2)c2ccccn2)cc1 [TRIPROLIDINE] | U2OS | 96%
CN(C)CCCc1cc(C(=O)Nc2ccc(-c3ccncc3)cc2)ccc1O.Cl.Cl | U2OS | 95%

* * *

Test system: Fibroblast
Assay: Multiplex assay against human fibroblast
Format: toxicity, cell-based
Settings: 24 h, 10 µM, compound concentration 10 uM, replicate 1
// reported Population Mitochondria Different-Phenotype (%) per item
observable: Population Mitochondria Different-Phenotype (%)

compound | readout_unit | number
CC(=O)NCCc1c(Cc2ccccc2)[nH]c2ccccc12 | % | 5
CC(C)(C)c1ccc(S(=O)(=O)Nc2ccc(Cl)cc2C(=O)c2cc[n+]([O-])cc2)cc1 | % | 2
CCCn1c(=O)c2[nH]c(C3CCCC3)nc2n(CCC)c1=O | % | 9
Cl.Clc1ccc2nsnc2c1NC1=NCCN1 [TIZANIDINE HYDROCHLORIDE] | % | 5
CN(C)CCCc1cc(C(=O)Nc2ccc(-c3ccncc3)cc2)ccc1O.Cl.Cl | % | 11
CSc1ccccc1N1CCN(CCCCCC(=O)NC2CCCc3ccccc32)CC1.Cl (stereo unspecified) | % | 81
Oc1c(CN2CCN(c3ccccn3)CC2)cc(Cl)c2cccnc12 | % | 15
Cc1nc2ccc(Oc3ccc(F)cc3)cc2c(=O)n1C[C@H]1CCCN(C(C)C)C1.Cl | % | 27
CN1CCN(c2nc3cc(C(F)(F)F)ccc3n3cccc23)CC1.O=C(O)/C=C\C(=O)O.O=C(O)/C=C\C(=O)O | % | 32
O=C(O)c1cc2ccccc2c(Cc2c(O)c(C(=O)O)cc3ccccc23)c1O | % | 1
O=S(=O)(c1ccccc1)c1cnc2c(N3CCNCC3)cccc2c1 [INTEPIRDINE] | % | 7
CCCN1CCC[C@@H]2Cc3n[nH]cc3C[C@H]21.Cl [QUINPIROLE HYDROCHLORIDE] | % | 7
O=C1COc2nccc(-c3ccccc3F)c2CN1Cc1cc(C(F)(F)F)cc(C(F)(F)F)c1 | % | 11
COc1cc(C(=O)N(CCCc2ccccc2)Cc2ccc(CC(=O)O)cc2)cc(OC)c1C | % | 6
N[C@@]1(C(=O)O)CO[C@H]2[C@H](C(=O)O)[C@H]21 | % | 3
Cc1ccc(C(C)(O)c2nc3ccccc3s2)c(C)c1 (stereo unspecified) | % | 6
C[C@@H]1C[C@H]2[C@@H]3CCC4=CC(=O)C=C[C@]4(C)[C@@]3(F)[C@@H](O)C[C@]2(C)[C@@]1(O)C(=O)CO | % | 6
Cc1ccc(/C(=C\CN2CCCC2)c2ccccn2)cc1 | % | 3
N#Cc1c(N)nc(SCc2csc(-c3ccc(Cl)cc3)n2)c(C#N)c1-c1ccc(OCCO)cc1 | % | 26
CSCC[C@H](NC=O)C(=O)N[C@@H](CC(C)C)C(=O)N[C@@H](Cc1ccccc1)C(=O)O | % | 7
Cc1ccc(F)cc1C(=O)Nc1ccc(C(=O)N2Cc3cccn3Cc3ccccc32)c(Cl)c1 | % | 8
CCCC(CCC)C(=O)O | % | 1
CCNC1(C(N)=O)CCN(c2ncnc3c2nc(-c2ccccc2Cl)n3-c2ccc(Cl)cc2)CC1 | % | 37
Cc1ccccc1C(=O)Nc1ccc(C(=O)N2CCCC(N(C)C)c3ccccc32)cc1.Cl (stereo unspecified) | % | 12
CC1(COc2ccc3c(c2)ncn3-c2ccc3cccc(N4CCC(N)CC4)c3n2)COC1 | % | 8
C[C@H]1[C@H]2CC[C@H]3[C@@H]4CC=C5C[C@@H](N(C)C)CC[C@]5(C)[C@H]4CC[C@]23CN1C | % | 7
COc1cc(NC(=O)CCN2CCC(OC(=O)Nc3ccccc3-c3ccccc3)CC2)c(Cl)cc1CNC[C@H](O)c1ccc(O)c2[nH]c(=O)ccc12 | % | 34
CCOc1c2c(c(OCC)c3ncccc13)CN(c1ccc(CS(=O)(=O)NC(=O)Cc3ccccc3OC)cc1C)C2=O | % | 2
c1cc(OCCCN2CCCCC2)ccc1CN1CCCCC1 | % | 6
O=C(O)Cc1ccccc1Nc1c(Cl)cccc1Cl | % | 5
CN1CCN2c3ncccc3Cc3ccccc3C2C1 (stereo unspecified) | % | 9
COc1ccc2c(c1)C(C(=O)N(Cc1ccc(N(C)C)cc1)c1ccc(C(C)C)cc1)CCC2.Cl (stereo unspecified) | % | 15
O=C(NCCO)c1cccc(-c2cc(Nc3ccc(OC(F)(F)F)cc3)ncn2)c1 | % | 21
O=C(NCC(=O)N1CC[C@H](N[C@H]2CC[C@@](O)(c3ccc(-c4ncccn4)cn3)CC2)C1)c1cccc(C(F)(F)F)c1 | % | 10
C[C@H](NC(=O)c1c(C(F)F)nn(C)c1Oc1cccc(C(F)(F)F)c1)c1ccc(C(=O)O)cc1 | % | 7
CN(C)c1ccnc2sc3c(=O)n(N4CCCCCC4)cnc3c12 | % | 18

Provenance of the data: ChEMBL document CHEMBL5058577
